test: Solubility of polydatin in alcohol-water solution and normal saline (Embodiment 13); format: physicochemical; conditions: alcohol-water solution, aqueous with cosolvent or surfactant or cyclodextrin, thermodynamic from solid, alcohol water solution 50%~95% (v/v); room temperature
parameter_measured: solubility at 8 h

Record OCC1OC(Oc2cc(O)cc(/C=C/c3ccc(O)cc3)c2)C(O)C(O)C1O (stereo not shown) [polydatin] , field solubility at 8 h: > 20 mg/mL

###

experiment: Effect of pH to solubility of polydatin (Embodiment 12); type: physicochemical; settings: deionized water of adjusted pH, pH 11, aqueous buffer, thermodynamic from solid, pH of solvent 11.0; water, room temperature
parameter_measured: solubility at 8 h (mg/mL)
Give the value, in units of mg/mL, as a plain number.

Notebook: OCC1OC(Oc2cc(O)cc(/C=C/c3ccc(O)cc3)c2)C(O)C(O)C1O (stereo not shown) , solubility at 8 h read as 0.7

###

test: Solubility of polydatin in alcohol-water solution and normal saline (Embodiment 13); format: physicochemical; conditions: alcohol-water solution, aqueous with cosolvent or surfactant or cyclodextrin, thermodynamic from solid, content of alcohol 90% (v/v) in water; room temperature
parameter_measured: solubility at 8 h

Per the record, OCC1OC(Oc2cc(O)cc(/C=C/c3ccc(O)cc3)c2)C(O)C(O)C1O (stereo not shown) has solubility at 8 h of ~75 mg/mL

###

test: Solubility of polydatin in propanediol-water solution (Embodiment 14); type: physicochemical; details: propanediol-water solution, aqueous with cosolvent or surfactant or cyclodextrin, thermodynamic from solid, content of propanediol 35% (v/v) in water; room temperature
parameter_measured: solubility at 8 h
Reply with the number and its unit after it.

Sure, the documented solubility at 8 h for OCC1OC(Oc2cc(O)cc(/C=C/c3ccc(O)cc3)c2)C(O)C(O)C1O (stereo not shown) is 4900 µg/mL

###

test: Solubility of polydatin in alcohol-water solution and normal saline (Embodiment 13); assay type: physicochemical; conditions: alcohol-water solution, aqueous with cosolvent or surfactant or cyclodextrin, thermodynamic from solid, content of alcohol 95% (v/v) in water; room temperature
parameter_measured: solubility at 8 h (mg/mL)
Field format: number, assumed mg/mL, no unit text.

The value of solubility at 8 h measured for the compound OCC1OC(Oc2cc(O)cc(/C=C/c3ccc(O)cc3)c2)C(O)C(O)C1O (stereo not shown) [polydatin] turned out to be 30.7

###

assay: Effect of pH to solubility of polydatin (Embodiment 12); assay type: physicochemical; conditions: deionized water of adjusted pH, pH 5, aqueous buffer, thermodynamic from solid, pH of solvent 5.0; water, room temperature
parameter_measured: solubility at 8 h

Value of solubility at 8 h reported for the compound OCC1OC(Oc2cc(O)cc(/C=C/c3ccc(O)cc3)c2)C(O)C(O)C1O (stereo not shown) [polydatin] is < 500 µg/mL

###

experiment: Solubility of polydatin in alcohol-water solution and normal saline (Embodiment 13); type: physicochemical; settings: alcohol-water solution, aqueous with cosolvent or surfactant or cyclodextrin, thermodynamic from solid, content of alcohol 70% (v/v) in water; room temperature
parameter_measured: solubility at 8 h

Input OCC1OC(Oc2cc(O)cc(/C=C/c3ccc(O)cc3)c2)C(O)C(O)C1O (stereo not shown) . Output solubility at 8 h: ~80 mg/mL

###

assay: Solubility of polydatin in alcohol-propanediol-water mixed solvent (Embodiment 15); format: physicochemical; settings: alcohol-propanediol-water mixed solvent, aqueous with cosolvent or surfactant or cyclodextrin, thermodynamic from solid, 45% alcohol water/propanediol 10/3
parameter_measured: solubility at 8 h (mg/mL)
Please state the figure in mg/mL; there is no need to write the unit.

Consider OCC1OC(Oc2cc(O)cc(/C=C/c3ccc(O)cc3)c2)C(O)C(O)C1O (stereo not shown) [polydatin] . Its measured solubility at 8 h is 42.4

###

assay: Solubility of polydatin in alcohol-propanediol-water mixed solvent (Embodiment 15); format: physicochemical; conditions: alcohol-water solution without propanediol, aqueous with cosolvent or surfactant or cyclodextrin, thermodynamic from solid, 45% alcohol water, no propanediol (10/—)
parameter_measured: solubility at 8 h
Please state the value followed by its unit.

So for OCC1OC(Oc2cc(O)cc(/C=C/c3ccc(O)cc3)c2)C(O)C(O)C1O (stereo not shown) , the logged solubility at 8 h turned out to be 20.2 mg/mL

###

experiment: Solubility of polydatin in alcohol-propanediol-water mixed solvent (Embodiment 15); assay type: physicochemical; settings: alcohol-propanediol-water mixed solvent, aqueous with cosolvent or surfactant or cyclodextrin, thermodynamic from solid, 75% alcohol water/propanediol 10/3
parameter_measured: solubility at 8 h (mg/mL)
Provide the reading as a plain figure in mg/mL.

// OCC1OC(Oc2cc(O)cc(/C=C/c3ccc(O)cc3)c2)C(O)C(O)C1O (stereo not shown) : solubility at 8 h value = 98.4

###

assay: Solubility of polydatin in alcohol-propanediol-water mixed solvent (Embodiment 15); format: physicochemical; conditions: alcohol-propanediol-water mixed solvent, aqueous with cosolvent or surfactant or cyclodextrin, thermodynamic from solid, 75% alcohol water/propanediol 10/1
parameter_measured: solubility at 8 h
Please state the value followed by its unit.

OCC1OC(Oc2cc(O)cc(/C=C/c3ccc(O)cc3)c2)C(O)C(O)C1O (stereo not shown) has a reported solubility at 8 h of 81.5 mg/mL

###

assay: Solubility of polydatin in propanediol-water solution (Embodiment 14); format: physicochemical; settings: propanediol-water solution, aqueous with cosolvent or surfactant or cyclodextrin, thermodynamic from solid, content of propanediol 20% (v/v) in water; room temperature
parameter_measured: solubility at 8 h

The molecule listed as OCC1OC(Oc2cc(O)cc(/C=C/c3ccc(O)cc3)c2)C(O)C(O)C1O (stereo not shown) shows solubility at 8 h equal to ~3500 µg/mL

###

experiment: Solubility of polydatin in alcohol-propanediol-water mixed solvent (Embodiment 15); format: physicochemical; settings: alcohol-propanediol-water mixed solvent, aqueous with cosolvent or surfactant or cyclodextrin, thermodynamic from solid, 60% alcohol water/propanediol 10/2
parameter_measured: solubility at 8 h

For record OCC1OC(Oc2cc(O)cc(/C=C/c3ccc(O)cc3)c2)C(O)C(O)C1O (stereo not shown) the listed solubility at 8 h is 66.4 mg/mL

###

assay: Solubility of polydatin in alcohol-propanediol-water mixed solvent (Embodiment 15); format: physicochemical; conditions: alcohol-propanediol-water mixed solvent, aqueous with cosolvent or surfactant or cyclodextrin, thermodynamic from solid, 75% alcohol water/propanediol 10/2
parameter_measured: solubility at 8 h

Entry OCC1OC(Oc2cc(O)cc(/C=C/c3ccc(O)cc3)c2)C(O)C(O)C1O (stereo not shown) , solubility at 8 h reported as 89.8 mg/mL

###

experiment: Solubility of polydatin in alcohol-water solution and normal saline (Embodiment 13); type: physicochemical; conditions: anhydrous alcohol, organic solvent or mixture, thermodynamic from solid, content of alcohol 100% (anhydrous alcohol); room temperature
parameter_measured: solubility at 8 h

solubility at 8 h measured on OCC1OC(Oc2cc(O)cc(/C=C/c3ccc(O)cc3)c2)C(O)C(O)C1O (stereo not shown) = ~20 mg/mL

###

experiment: Solubility of polydatin in propanediol-water solution (Embodiment 14); format: physicochemical; conditions: propanediol-water solution, aqueous with cosolvent or surfactant or cyclodextrin, thermodynamic from solid, content of propanediol 65% (v/v) in water; room temperature
parameter_measured: solubility at 8 h (mg/mL)
Quick reminder: number only, in mg/mL, skip the unit.

Looking up OCC1OC(Oc2cc(O)cc(/C=C/c3ccc(O)cc3)c2)C(O)C(O)C1O (stereo not shown) , I found its solubility at 8 h recorded as 28.3

###

test: Effect of pH to solubility of polydatin (Embodiment 12); assay type: physicochemical; conditions: deionized water of adjusted pH, pH 10, aqueous buffer, thermodynamic from solid, pH of solvent 10.0; water, room temperature
parameter_measured: solubility at 8 h

// OCC1OC(Oc2cc(O)cc(/C=C/c3ccc(O)cc3)c2)C(O)C(O)C1O (stereo not shown) [polydatin] : solubility at 8 h value = < 500 µg/mL

###

assay: Effect of pH to solubility of polydatin (Embodiment 12); assay type: physicochemical; settings: deionized water of adjusted pH, pH 8, aqueous buffer, thermodynamic from solid, pH of solvent 8.0; water, room temperature
parameter_measured: solubility at 8 h

# solubility at 8 h (molecule: OCC1OC(Oc2cc(O)cc(/C=C/c3ccc(O)cc3)c2)C(O)C(O)C1O (stereo not shown) [polydatin] ) is < 500 µg/mL

###

assay: Solubility of polydatin in propanediol-water solution (Embodiment 14); assay type: physicochemical; details: 1,2-propanediol, organic solvent or mixture, thermodynamic from solid, content of propanediol 100% (propanediol); room temperature
parameter_measured: solubility at 8 h

Record summary for OCC1OC(Oc2cc(O)cc(/C=C/c3ccc(O)cc3)c2)C(O)C(O)C1O (stereo not shown) [polydatin] : reported solubility at 8 h = ~60 mg/mL

###

test: Solubility of polydatin in alcohol-water solution and normal saline (Embodiment 13); format: physicochemical; conditions: alcohol-water solution, aqueous with cosolvent or surfactant or cyclodextrin, thermodynamic from solid, content of alcohol 60% (v/v) in water; room temperature
parameter_measured: solubility at 8 h

Lab note: OCC1OC(Oc2cc(O)cc(/C=C/c3ccc(O)cc3)c2)C(O)C(O)C1O (stereo not shown) gave solubility at 8 h of ~42 mg/mL

Value source: patent US20080261902A1
